Target: T1, human interleukin-23 receptor (IL23R) (human, UniProt Q5VWK5 24-355, limits assumed)
T1 construct: also called human IL23R
T1 sequence (looked up): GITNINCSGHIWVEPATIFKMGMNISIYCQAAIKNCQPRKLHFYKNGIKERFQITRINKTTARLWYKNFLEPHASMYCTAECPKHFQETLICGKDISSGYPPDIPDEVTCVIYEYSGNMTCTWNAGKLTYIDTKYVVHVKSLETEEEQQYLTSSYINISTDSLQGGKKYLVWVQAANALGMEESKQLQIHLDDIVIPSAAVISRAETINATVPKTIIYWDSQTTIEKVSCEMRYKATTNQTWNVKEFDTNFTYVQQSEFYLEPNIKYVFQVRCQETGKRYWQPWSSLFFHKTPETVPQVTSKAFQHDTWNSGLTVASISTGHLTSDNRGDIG
Assay: SPR, scFv (summary table)
pKd: −log10 of the molar value.
Please use satisfied whenever pKd is not below 10, and not satisfied whenever it is.

Study these solved cases before continuing.
Prompt line: Could you tell me if the measured pKd of Vκ1/VH1A consensus (uncapped), human IL23R specific scFv (scFv, scFv VL-linker-VH, made in E. coli; Vκ framework IV (uncapped, full consensus); also called Vκ1VH1A uncapped) scFv: DIQMTQSPSSLSASVGDRVTITCQASENIYSFLAWYQQKPGKAPKLLIYSASKLAAGVPSRFSGSGSGTDFTLTISSLQPEDFATYYCQQTNRYSNPDIYNVFGQGTKVEIKRGGGGSGGGGSGGGGSGGGGSQVQLVQSGAEVKKPGSSVKVSCKASGIDFNSNYYMCWVRQAPGQGLEWMGCIYVGSHVNTYYANWAKGRVTITADESTSTAYMELSSLRSEDTAVYYCATSGSSVLYFKFWGQGTLVTVSS reaches 10 or more?
Response line: satisfied

Prompt line: Now the same for Vκ2/VH6 consensus (uncapped), human IL23R specific scFv (scFv, scFv VL-linker-VH, made in E. coli; Vκ framework IV (uncapped, full consensus); also called Vκ2VH6 uncapped) scFv: DIVMTQSPLSLPVTPGEPASISCQASENIYSFLAWYLQKPGQSPQLLIYSASKLAAGVPDRFSGSGSGTDFTLKISRVEAEDVGVYYCQQTNRYSNPDIYNVFGQGTKVEIKRGGGGSGGGGSGGGGSGGGGSQVQLQQSGPGLVKPSQTLSLTCAISGIDFNSNYYMCWIRQSPGRGLEWLGCIYVGSHVNTYYANWAKGRITINPDTSKNQFSLQLNSVTPEDTAVYYCATSGSSVLYFKFWGQGTLVTVSS
Response line: not satisfied

Next binder, please.
Prompt line: Could you tell me if the measured pKd of Vκ1/VH1B consensus λ-capped, human IL23R specific scFv (scFv, scFv VL-linker-VH, made in E. coli; also called Vκ1VH1B capped) scFv: DIQMTQSPSSLSASVGDRVTITCQASENIYSFLAWYQQKPGKAPKLLIYSASKLAAGVPSRFSGSGSGTDFTLTISSLQPEDFATYYCQQTNRYSNPDIYNVFGGGTKLTVLGGGGGSGGGGSGGGGSGGGGSQVQLVQSGAEVKKPGASVKVSCKASGIDFNSNYYMCWVRQAPGQGLEWMGCIYVGSHVNTYYANWAKGRVTMTRDTSISTAYMELSSLRSEDTAVYYCATSGSSVLYFKFWGQGTLVTVSS reaches 10 or more?
Response line: not satisfied
